This collection of values is drawn from the supplement of paper PMC5998384.

Give measured solubility in G1/S (log2) for each item. Keep answers brief.
Test system: HeLa Kyoto;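 also: HeLa Kyoto cells arrested at G1/S by double thymidine block, proteins quantified by TMT10plex mass spectrometry in mild NP-40 versus SDS extracts, three biological replicates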
Assay: solubility in G1/S (NP-40 vs SDS abundance) (log2 ratio); higher = more soluble
Details: cell cycle stage: G1/S
Give bare numbers.

Look over these answered cases.
CHAIN	solubility in G1/S (log2)
MDPAARVVRALWPGGCALAWRLGGRPQPLLPTQSRAGFAGAAGGPSPVAAARKGSPRLLGAAALALGGALGLYHTARWHLRAQDLHAERSAAQLSLSSRLQLTLYQYKTCPFCSKVRAFLDFHALPYQVVEVNPVRRAEIKFSSYRKVPILVAQEGESSQQLNDSSVIISALKTYLVSGQPLEEIITYYPAMKAVNEQGKEVTEFGNKYWLMLNEKEAQQVYGGKEARTEEMKWRQWADDWLVHLISPNVYRTPTEALASFDYIVREGKFGAVEGAVAKYMGAAAMYLISKRLKSRHRLQDNVREDLYEAADKWVAAVGKDRPFMGGQKPNLADLAVYGVLRVMEGLDAFDDLMQHTHIQPWYLRVERAITEASPAH [PTGES2]	0.0509
MRGKTFRFEMQRDLVSFPLSPAVRVKLVSAGFQTAEELLEVKPSELSKEVGISKAEALETLQIIRRECLTNKPRYAGTSESHKKCTALELLEQEHTQGFIITFCSALDDILGGGVPLMKTTEICGAPGVGKTQLCMQLAVDVQIPECFGGVAGEAVFIDTEGSFMVDRVVDLATACIQHLQLIAEKHKGEEHRKALEDFTLDNILSHIYYFRCRDYTELLAQVYLLPDFLSEHSKVRLVIVDGIAFPFRHDLDDLSLRTRLLNGLAQQMISLANNHRLAVILTNQMTTKIDRNQALLVPALGESWGHAATIRLIFHWDRKQRLATLYKSPSQKECTVLFQIKPQGFRDTVVTSACSLQTEGSLSTRKRSRDPEEEL [RAD51C]	0.00866

Go through the items and report each one's solubility in G1/S (log2).
1. MGNLFGRKKQSRVTEQDKAILQLKQQRDKLRQYQKRIAQQLERERALARQLLRDGRKERAKLLLKKKRYQEQLLDRTENQISSLEAMVQSIEFTQIEMKVMEGLQFGNECLNKMHQVMSIEEVERILDETQEAVEYQRQIDELLAGSFTQEDEDAILEELSAITQEQIELPEVPSEPLPEKIPENVPVKARPRQAELVAAS [CHMP6]
2. MEEGGNLGGLIKMVHLLVLSGAWGMQMWVTFVSGFLLFRSLPRHTFGLVQSKLFPFYFHISMGCAFINLCILASQHAWAQLTFWEASQLYLLFLSLTLATVNARWLEPRTTAAMWALQTVEKERGLGGEVPGSHQGPDPYRQLREKDPKYSALRQNFFRYHGLSSLCNLGCVLSNGLCLAGLALEIRSL [TMEM205]
3. MALPIIVKWGGQEYSVTTLSEDDTVLDLKQFLKTLTGVLPERQKLLGLKVKGKPAENDVKLGALKLKPNTKIMMMGTREESLEDVLGPPPDNDDVVNDFDIEDEVVEVENREENLLKISRRVKEYKVEILNPPREGKKLLVLDVDYTLFDHRSCAETGVELMRPYLHEFLTSAYEDYDIVIWSATNMKWIEAKMKELGVSTNANYKITFMLDSAAMITVHTPRRGLIDVKPLGVIWGKFSEFYSKKNTIMFDDIGRNFLMNPQNGLKIRPFMKAHLNRDKDKELLKLTQYLKEIAKLDDFLDLNHKYWERYLSKKQGQ [UBLCP1]

// result
[0.453, 0.0662, 0.159]
